Origin of the recorded values: patent US9556201B2

- experimental target: SIRT1 (Homo sapiens, UniProt Q96EB6)
- Sequence (Q96EB6 1-747): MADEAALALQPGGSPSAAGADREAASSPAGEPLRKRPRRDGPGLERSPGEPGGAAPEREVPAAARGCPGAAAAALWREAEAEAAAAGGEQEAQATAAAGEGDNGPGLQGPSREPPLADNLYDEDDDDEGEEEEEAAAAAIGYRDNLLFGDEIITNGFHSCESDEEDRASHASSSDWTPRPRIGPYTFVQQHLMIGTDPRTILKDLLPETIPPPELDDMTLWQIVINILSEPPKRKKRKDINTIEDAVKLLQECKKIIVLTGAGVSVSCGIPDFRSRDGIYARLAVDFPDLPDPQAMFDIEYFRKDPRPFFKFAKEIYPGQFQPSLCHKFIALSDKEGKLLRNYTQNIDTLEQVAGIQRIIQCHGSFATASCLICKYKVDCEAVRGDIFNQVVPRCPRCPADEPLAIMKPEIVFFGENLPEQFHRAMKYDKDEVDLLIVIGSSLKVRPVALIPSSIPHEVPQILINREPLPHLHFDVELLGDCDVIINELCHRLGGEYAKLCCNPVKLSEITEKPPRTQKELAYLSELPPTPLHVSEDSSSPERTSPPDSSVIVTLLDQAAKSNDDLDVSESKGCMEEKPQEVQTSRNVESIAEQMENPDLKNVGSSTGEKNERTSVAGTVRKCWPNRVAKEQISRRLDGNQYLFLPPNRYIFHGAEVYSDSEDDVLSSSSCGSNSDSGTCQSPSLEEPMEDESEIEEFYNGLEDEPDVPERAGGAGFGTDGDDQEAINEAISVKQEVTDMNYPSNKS
- experiment notes: Mass spectrometry based assay to identify modulators of SIRT1 activity (deacetylation of p53-based acetylated peptide substrate)
- Format: biochemical
- Excerpt: A mass spectrometry based assay was used to identify modulators of SIRT1 activity. The mass spectrometry based assay utilizes a peptide having 20 amino acid residues as follows: Ac-EE-K(biotin)-GQSTSSHSK(Ac)NleSTEG-K(5TMR)-EE-NH2 (SEQ ID NO: 1) wherein K(Ac) is an acetylated lysine residue and Nle is a norleucine. The peptide is labeled with the fluorophore 5TMR (excitation 540 nm/emission 580 nm) at the C-terminus. The sequence of the peptide substrate is based on p53 with several modifications. […]
reported endpoint: EC1.5 (concentration giving 1.5-fold activation)

INSERT INTO assay_data (compound, observed_measurement) VALUES
  ('CCN1CCCN(C(=O)Nc2ccccn2)c2nc(-c3cccc(Cl)c3)ccc21', '> 25000 nM'),
  ('O=C(Nc1ccncn1)N1CCCC(F)(F)c2ccc(-c3cccc(Cl)c3)nc21', '1000 to 25000 nM');

**Q:** Determine its reported EC1.5 (concentration giving 1.5-fold activation): `CC1(C)CCN(C(=O)Nc2ncccc2F)c2nc(-c3cccc(C(F)(F)F)c3)ccc21`
**A:** 1000 to 25000 nM

**Q:** Supply recorded EC1.5 (concentration giving 1.5-fold activation) for O=C(Nc1ccnc(OCC(O)CO)n1)N1CCOc2ccc(-c3cccc(C(F)(F)F)c3)nc21 (centres unmarked) here.
**A:** < 1000 nM

**Q:** Tell me measured EC1.5 (concentration giving 1.5-fold activation) for `O=C(Nc1ccncc1)N1CCC(F)(F)c2ccc(-c3cccc(C(F)(F)F)c3)nc21` please.
**A:** 1000 to 25000 nM

**Q:** Give a short answer stating reported EC1.5 (concentration giving 1.5-fold activation) for `O=C(Nc1ccncn1)N1CCCCc2ccc(-c3cccc(Cl)c3)nc21` .
**A:** 1000 to 25000 nM

**Q:** Tell me its EC1.5 (concentration giving 1.5-fold activation) given `Cc1cncc(NC(=O)N2CCOc3cnc(-c4cccc(C(F)(F)F)c4)nc32)c1` as the entry.
**A:** < 1000 nM

**Q:** Please list EC1.5 (concentration giving 1.5-fold activation) recorded for the compound `O=C(Nc1ccc2nccnc2c1)N1CCCOc2ccc(-c3cccc(Cl)c3)nc21`
**A:** < 1000 nM

**Q:** Answer with the recorded EC1.5 (concentration giving 1.5-fold activation) for the compound listed here: `O=C1CCCN(C(=O)Nc2cccnc2)c2nc(-c3cccc(Cl)c3)ccc21`
**A:** 1000 to 25000 nM

**Q:** Specify EC1.5 (concentration giving 1.5-fold activation) for `O=C(Nc1ccncn1)N1CCc2ccc(-c3cccc(C(F)(F)F)c3)nc21` and stop.
**A:** < 1000 nM

**Q:** Determine from records and report EC1.5 (concentration giving 1.5-fold activation) for `O=C(Nc1ccnc(OC[C@@H](O)CO)n1)N1CCOc2ccc(-c3cccc(C(F)(F)F)c3)nc21`
**A:** > 25000 nM

**Q:** Could you please provide reported EC1.5 (concentration giving 1.5-fold activation) for CC1CCN(C(=O)Nc2ccc(F)cn2)c2nc(-c3cccc(C(F)(F)F)c3)ccc21 (centres unmarked) ? Thanks!
**A:** < 1000 nM

**Q:** Recall and state the measured EC1.5 (concentration giving 1.5-fold activation) for `O=C(Nc1ccncc1)N1CCOc2cnc(-c3cccc(N4CCCC4)c3)nc21` .
**A:** 1000 to 25000 nM
